Numbers sourced from ChEMBL document CHEMBL2218924.

test-target: Tyrosine-protein kinase HCK (Homo sapiens) (UniProt P08631)
Sequence (P08631 2-526 limits assumed): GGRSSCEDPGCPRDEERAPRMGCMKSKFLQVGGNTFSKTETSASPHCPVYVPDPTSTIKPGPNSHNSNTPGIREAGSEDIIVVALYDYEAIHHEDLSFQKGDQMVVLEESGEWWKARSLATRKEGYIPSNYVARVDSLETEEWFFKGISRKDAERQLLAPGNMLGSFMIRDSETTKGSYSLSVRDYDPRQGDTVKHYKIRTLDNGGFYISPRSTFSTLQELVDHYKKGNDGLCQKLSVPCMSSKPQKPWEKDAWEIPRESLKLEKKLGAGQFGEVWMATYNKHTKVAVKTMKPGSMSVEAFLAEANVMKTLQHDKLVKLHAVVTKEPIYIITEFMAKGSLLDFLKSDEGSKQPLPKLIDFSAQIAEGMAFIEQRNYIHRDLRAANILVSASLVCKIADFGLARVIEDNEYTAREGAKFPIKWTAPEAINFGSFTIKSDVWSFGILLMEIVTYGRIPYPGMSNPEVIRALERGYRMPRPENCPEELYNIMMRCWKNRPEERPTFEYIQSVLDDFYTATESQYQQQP
condition-parameters: at 1 µM
endpoint: residual activity (%)
Answers are plain numbers, in %.

Below, each entry is followed by its recorded residual activity result.
CNc1cc2c(Nc3cccc(Br)c3)ncnc2cn1; 68
Cc1cc2ncc(-c3ccccc3)nc2cc1C; 68
N#CC(C#N)=C(N)/C(C#N)=C/c1ccc(O)cc1; 84
N#CCCc1ccc2c(c1)-c1[nH]c3ccc([N+](=O)[O-])cc3c1CC(=O)N2; 30
CCC(=O)Nc1ccc2ncnc(Nc3cccc(Br)c3)c2c1; 82

Please examine the following record next.
The molecule COc1ccc(CNc2nc(N(CCO)CCO)nc3c2ncn3C(C)C)cc1 showed residual activity equal to 62

----------
Give measured residual activity for each item. Keep answers brief.
test-target: Serine/threonine-protein kinase STK11 (Homo sapiens)
Sequence (whole entry): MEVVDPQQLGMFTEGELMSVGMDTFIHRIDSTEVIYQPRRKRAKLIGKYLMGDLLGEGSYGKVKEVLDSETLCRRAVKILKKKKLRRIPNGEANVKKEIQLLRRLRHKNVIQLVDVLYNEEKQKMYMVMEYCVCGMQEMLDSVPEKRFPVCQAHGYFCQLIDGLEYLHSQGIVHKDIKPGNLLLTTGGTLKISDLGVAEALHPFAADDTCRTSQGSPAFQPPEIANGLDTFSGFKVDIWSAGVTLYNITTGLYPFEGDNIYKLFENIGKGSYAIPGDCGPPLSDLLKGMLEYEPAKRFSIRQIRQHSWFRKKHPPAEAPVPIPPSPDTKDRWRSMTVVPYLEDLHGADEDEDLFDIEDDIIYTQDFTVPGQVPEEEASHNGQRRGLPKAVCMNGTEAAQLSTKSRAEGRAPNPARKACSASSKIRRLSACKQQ
condition-parameters: at 1 µM
State the result as a value with its unit after it.

Each compound below has a reported value. Please supply its residual activity.
1. Cc1cccc(-c2[nH]c(C(C)(C)C)nc2-c2ccc3c(c2)OCO3)n1
2. O=c1cc(-c2cccc3c2Sc2ccccc2S3)oc(N2CCOCC2)c1
3. CO[C@@H]1[C@H](N(C)C(=O)c2ccccc2)C[C@H]2O[C@]1(C)n1c3ccccc3c3c4c(c5c6ccccc6n2c5c31)C(=O)NC4
4. O=[N+]([O-])c1ccc(-c2nc(-c3ccc(F)cc3)c(-c3ccncc3)[nH]2)cc1
5. CN(C)CCCn1cc(C2=C(c3c[nH]c4ccccc34)C(=O)NC2=O)c2ccccc21

Solution:
1: 102%; 2: 95%; 3: 95%; 4: 98%; 5: 105%

Each compound below has a reported value. Please supply its residual activity.
1. O=C1NC(=O)/C(=C/c2ccc3c(c2)OC(F)(F)O3)S1
2. CCN(CC)CCCCN1c2ccccc2Oc2ccc(Cl)cc21
3. Ic1cccc(CSc2nnc(-c3ccncc3)o2)c1
4. CC(=O)c1ccc(N2CCOCC2)cc1O
5. O=C1NC(=O)c2c1c1c3ccccc3[nH]c1c1[nH]c3cc(Br)ccc3c21

Solution:
102%
103%
96%
97%
96%

Each compound below has a reported value. Please supply its residual activity.
1. Nc1cccc(-c2cc3c(Oc4cccc(O)c4)ncnc3[nH]2)c1
2. CC#CC(=O)Nc1cc2c(Nc3ccc(F)c(Cl)c3)ncnc2cn1
3. CO[C@H]1[C@@H](OC)C[C@H](C)[C@@H](OC)C2=CC(=O)C=C(NC(=O)/C(C)=C/C=C/[C@H](OC)[C@@H](OC(N)=O)/C(C)=C/[C@@H]1C)C2=O
4. CN(C)c1ccc(/C=C2\C(=O)Nc3ccccc32)cc1
5. Oc1n[nH]c2nnc(-c3c(-c4ccccc4)nn4ccccc34)cc12
6. COc1ccc(CNc2nc(N(CCO)CCO)nc3c2ncn3C(C)C)cc1
7. O=C1c2ccccc2-[n+]2ccc3c([nH]c4ccccc43)c21

Solution:
67%
102%
97%
94%
91%
126%
100%

----------
Give measured residual activity for each item. Keep answers brief.
test-target: Fibroblast growth factor receptor 2 (Homo sapiens) (UniProt P21802)
Sequence (P21802 22-821 limits assumed): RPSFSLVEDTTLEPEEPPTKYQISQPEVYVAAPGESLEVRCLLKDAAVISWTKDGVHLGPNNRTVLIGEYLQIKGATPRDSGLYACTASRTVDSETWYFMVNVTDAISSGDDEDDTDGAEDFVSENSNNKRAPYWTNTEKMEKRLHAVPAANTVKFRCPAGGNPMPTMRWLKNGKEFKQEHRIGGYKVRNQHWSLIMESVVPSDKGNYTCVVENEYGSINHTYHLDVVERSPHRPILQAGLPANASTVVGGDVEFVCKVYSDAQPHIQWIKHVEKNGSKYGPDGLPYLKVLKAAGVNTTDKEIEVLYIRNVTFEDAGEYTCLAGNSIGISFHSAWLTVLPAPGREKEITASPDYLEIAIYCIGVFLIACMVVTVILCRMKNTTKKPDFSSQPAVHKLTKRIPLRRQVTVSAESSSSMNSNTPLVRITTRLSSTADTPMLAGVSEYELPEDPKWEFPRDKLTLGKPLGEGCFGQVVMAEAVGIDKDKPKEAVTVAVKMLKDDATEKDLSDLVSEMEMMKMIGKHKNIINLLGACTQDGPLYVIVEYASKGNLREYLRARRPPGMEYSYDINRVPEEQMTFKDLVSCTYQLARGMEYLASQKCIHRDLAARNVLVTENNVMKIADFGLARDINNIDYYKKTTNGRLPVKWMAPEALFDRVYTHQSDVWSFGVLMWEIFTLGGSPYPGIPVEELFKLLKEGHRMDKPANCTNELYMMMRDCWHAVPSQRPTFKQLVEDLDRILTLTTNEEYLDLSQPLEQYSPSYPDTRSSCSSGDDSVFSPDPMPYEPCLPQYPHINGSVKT
condition-parameters: at 1 µM
Answers are plain numbers, in %.

Below, each entry is followed by its recorded residual activity result.
c1ccc2c(-c3ccncc3)c[nH]c2c1; 111
COc1cc2ncc(-c3ccccc3)nc2cc1OC; 100
CCN(CC)CCCCN1c2ccccc2Oc2ccc(Cl)cc21; 108
Oc1n[nH]c2nnc(-c3c(-c4ccccc4)nn4ccccc34)cc12; 95
N#C/C(=C(\N)Sc1ccc(N)cc1)c1ccccc1C(F)(F)F; 100

Each compound below has a reported value. Please supply its residual activity.
1. COc1cc2ncnc(N3CCN(C(=O)Nc4ccc(Oc5ccccc5)cc4)CC3)c2cc1OC
2. O=C1NC(=O)c2cc(Nc3ccc(F)cc3)c(Nc3ccc(F)cc3)cc21
3. Oc1ccc(Nc2nc(-c3ccc(Cl)cc3)cs2)cc1
4. Cc1ccc(NC2=CC(=O)c3sc(C)nc3C2=O)cc1
5. Cn1cc(/C=C2\C(=O)Nc3ccc(S(N)(=O)=O)cc32)c2ccccc21
6. O=c1c2ccccc2[nH]c(=S)n1CCN1CCC(=C(c2ccc(F)cc2)c2ccc(F)cc2)CC1

Solution:
105
101
119
100
10
119

----------
Give measured residual activity for each item. Keep answers brief.
test-target: RAC-gamma serine/threonine-protein kinase (Homo sapiens)
condition-parameters: at 1 µM
State the result as a value with its unit after it.

Below, each entry is followed by its recorded residual activity result.
CC[n+]1c(/C=C/N(C)c2ccccc2)n(-c2ccccc2)c2ccc(-c3nc4ccccc4s3)cc21; 105%
O=C1NC(=O)/C(=C/c2ccc3c(c2)OC(F)(F)O3)S1; 97%
CO[C@H]1[C@@H](OC)C[C@H](C)[C@@H](OC)C2=CC(=O)C=C(NC(=O)/C(C)=C/C=C/[C@H](OC)[C@@H](OC(N)=O)/C(C)=C/[C@@H]1C)C2=O; 94%
O=C1NC(=O)c2cc(Nc3ccc(F)cc3)c(Nc3ccc(F)cc3)cc21; 98%

Please examine the following record next.
The compound COc1ccc(OC)c2c(=S)c3ccccc3[nH]c12 showed residual activity equal to 89%

----------
Give measured residual activity for each item. Keep answers brief.
test-target: Fibroblast growth factor receptor 1 (Homo sapiens)
condition-parameters: at 1 µM
Answers are plain numbers, in %.

Below, each entry is followed by its recorded residual activity result.
Oc1ccc(Nc2nc(-c3ccc(Cl)cc3)cs2)cc1; 128
N#CC(C#N)=C(N)/C(C#N)=C/c1ccc(O)cc1; 100
CN(C)CCCn1cc(C2=C(c3c[nH]c4ccccc34)C(=O)NC2=O)c2ccccc21; 50
Nc1nc(Nc2ccc(S(N)(=O)=O)cc2)nn1C(=S)Nc1c(F)cccc1F; 1
O=C1NC(=O)/C(=C\c2ccc3nccnc3c2)S1; 113

Each compound below has a reported value. Please supply its residual activity.
1. COc1cccc(-c2cc(=O)c3ccccc3o2)c1N
2. COc1cc2ncnc(N3CCN(C(=O)Nc4ccc(Oc5ccccc5)cc4)CC3)c2cc1OC
3. CCN(CC)CCCCN1c2ccccc2Oc2ccc(Cl)cc21
4. CC(=O)O/N=C1\C(=C2\C(=O)Nc3cc(Br)ccc32)Nc2ccccc21
5. COc1ccc(OC)c2c(=S)c3ccccc3[nH]c12

Solution:
1. 143
2. 90
3. 113
4. 17
5. 116

Each compound below has a reported value. Please supply its residual activity.
1. O=[N+]([O-])c1ccc(-c2nc(-c3ccc(F)cc3)c(-c3ccncc3)[nH]2)cc1
2. CC(C)n1cnc2c(NCc3ccccc3)nc(NCCCO)nc21
3. N#Cc1cnc2cnc(NCc3cccnc3)cc2c1Nc1ccc(F)c(Cl)c1
4. O=C1NC(=O)c2cc(Nc3ccc(F)cc3)c(Nc3ccc(F)cc3)cc21

Solution:
1. 102
2. 104
3. 21
4. 85

Each compound below has a reported value. Please supply its residual activity.
1. CC(C)n1cnc2/c(=N/c3cccc(Cl)c3)nc(NCCO)[nH]c21
2. Nc1cccc(-c2cc3c(Oc4cccc(O)c4)ncnc3[nH]2)c1
3. Cc1cc(Nc2nc(-c3ccccc3)nc3ccccc23)n[nH]1
4. COc1ccc(C(=O)Nc2sc3c(c2C(N)=O)CCCC3)cc1OC

Solution:
1: 87; 2: 2; 3: 4; 4: 87

Each compound below has a reported value. Please supply its residual activity.
1. Cn1nc2c3c(cccc31)C(=O)c1ccccc1-2
2. O=C(Nc1cccc(Nc2nccc(Nc3cccc(C(F)(F)F)c3)n2)c1)C1CC1
3. COc1cc2ncnc(Nc3ccc(O)c(Br)c3)c2cc1OC

Solution:
[110, 69, 58]

----------
Give measured residual activity for each item. Keep answers brief.
test-target: Fibroblast growth factor receptor 2 (Homo sapiens) (UniProt P21802)
condition-parameters: at 10 µM
One number for each entry, in %.

Below, each entry is followed by its recorded residual activity result.
CO[C@H]1C[C@@H]2CC[C@@H](C)[C@@](O)(O2)C(=O)C(=O)N2CCCC[C@H]2C(=O)O[C@H]([C@H](C)C[C@@H]2CC[C@@H](O)[C@H](OC)C2)CC(=O)[C@H](C)/C=C(\C)[C@@H](O)[C@@H](OC)C(=O)[C@H](C)C[C@H](C)/C=C/C=C/C=C/1C; 114
N#Cc1cnc2cnc(NCc3cccnc3)cc2c1Nc1ccc(F)c(Cl)c1; 30
COc1cccc(-c2cc(=O)c3ccccc3o2)c1N; 92
COc1cc2ncnc(N3CCN(C(=O)Nc4ccc(Oc5ccccc5)cc4)CC3)c2cc1OC; 102
O=C(O)c1ccc2c3c1cccc3c(=O)n1c3ccccc3nc21; 78

Each compound below has a reported value. Please supply its residual activity.
1. COc1ccc(OC)c2c(=S)c3ccccc3[nH]c12
2. O=c1cc(-c2cccc3c2Sc2ccccc2S3)oc(N2CCOCC2)c1

Solution:
85
81
